Each entry below carries its recorded EC50.
test_name: GAL7 RNA poly(A) addition blockers – cell lysate, S. cerevisiae extracts, radioactive, gel readout, orthogonal assay for polyadenylation inhibitor project, dose response (AID 2704)
conditions: S. cerevisiae extract
Calls of active or inactive are those of the source.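 How the source made its calls: active means a dose-dependent loss of polyadenylated product, with a fitted EC50, the dose giving half the full effect; inactive means no dose-dependent effect seen.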

>  <compound>
N#CC1(C#N)C2=C(CCCC2)NC(c2ccccc2)C1(C#N)C#N (centres undefined)

>  <EC50>
280 µM (active)

$$$$
>  <compound>
Cc1ccc(-c2nn3c(C)nnc3s2)cc1NC(=O)CSc1ccc(Cl)cc1

>  <EC50>
900 µM (active)

$$$$
>  <compound>
Cc1ccc2nc(/C(C#N)=C/c3ccc([N+](=O)[O-])o3)[nH]c2c1

>  <EC50>
700 µM (active)

$$$$
>  <compound>
N#C/C(=C/c1ccc([N+](=O)[O-])o1)c1nc2ccccc2[nH]1

>  <EC50>
1100 µM (active)

$$$$
